All figures here come from PubChem BioAssay AID248.

Provide the recorded T/C for the entries that follow.
test system: L1210 leukemia ip in BDF1 mice, survival T/C; assay: NCI In Vivo Anticancer Drug Screen. Data for tumor model L1210 Leukemia (intraperitoneal) in B6D2F1 (BDF1) mice; conditions: endpoint: mean survival time; dose: 200.0 mg/kg/injection; schedule: Q01DX009 (ip); vehicle: Klucel (hydroxypropylcellulose) (HPC); higher = longer survival
Inconclusive results and toxic doses are left out.

Please review the entries below; each comes with its answer.
Cc1cc(C)cc(OCC2C(COC(=O)c3cccc(Cl)c3)c3ccccc3N2C)c1 (stereo not given) | 94 % of control
Cc1cc(C)c(S(=O)(=O)Nc2ccccc2F)c(C)c1 | 110 % of control

Dear reader, for each entry below, please note its T/C.
1. CC(=O)c1cccc(NC(=O)Nc2cccc(F)c2)c1
2. Cc1cccc2c(Cl)c3cccc(C)c3nc12
3. Cc1ccc(C)c(NC(=O)c2ccccc2C(=O)O)c1

**Result**
1. 97 % of control
2. 93 % of control
3. 104 % of control

* * *

Provide the recorded T/C for the entries that follow.
tested on: L1210 leukemia ip in BDF1 mice, survival T/C; test: NCI In Vivo Anticancer Drug Screen. Data for tumor model L1210 Leukemia (intraperitoneal) in B6D2F1 (BDF1) mice; conditions: endpoint: mean survival time; dose: 200.0 mg/kg/injection; schedule: Q04DX003 (ip); vehicle: Klucel (hydroxypropylcellulose) (HPC); higher = longer survival
Toxic doses and inconclusive results are not listed.

Please review the entries below; each comes with its answer.
Cc1c(C)c([N+](=O)[O-])c(C)c(C)c1[N+](=O)[O-] | 100 % of control
NC(=O)N/N=C\c1ccco1 | 102 % of control
CCC/C=C/C(C)C | 97 % of control
O=[N+]([O-])c1ccc(N2CCOCC2)cc1 | 100 % of control
O/N=C\CC/C=N\O | 98 % of control

Dear reader, for each entry below, please note its T/C.
1. O=C1c2ccccc2C(=O)c2c(Cl)ccc(O)c21
2. Cc1ccc(C(=O)CCCC(=O)O)c(O)c1
3. Clc1ccc2c(c1)Cc1cc(Cl)cc(Cl)c1-2

**Result**
1. 97 % of control
2. 112 % of control
3. 100 % of control

Dear reader, for each entry below, please note its T/C.
1. CCCCOc1ccc(OC(=O)Nc2cc(C)ccc2C)cc1
2. COC(=O)c1ccccc1N(C)C(=O)c1ccccc1

**Result**
95 % of control
107 % of control

Dear reader, for each entry below, please note its T/C.
1. C[C@@H]1CC[C@@]2(NC1)O[C@H]1C[C@H]3[C@@H]4CC=C5C[C@@H](O)CC[C@]5(C)[C@H]4CC[C@]3(C)[C@H]1[C@@H]2C
2. CC(C)=CCN(CC=C(C)C)CCC(O)(Cc1ccccc1)c1ccccc1 (centres undefined)

**Result**
1. 99 % of control
2. 95 % of control

Dear reader, for each entry below, please note its T/C.
1. CCN(CC)c1cc(Cl)c(C=O)cc1Br
2. O=[N+]([O-])c1ccccc1N1CCCCC1
3. CCCCN(CCCCS(=O)(=O)O)c1ccc(N=Nc2cc(Cl)ccc2Cl)cc1
4. ClCc1ccccc1CCc1ccccc1CCl
5. O=C(O)COc1ccc(OCC(=O)O)cc1

**Result**
1: 98 % of control; 2: 89 % of control; 3: 105 % of control; 4: 94 % of control; 5: 95 % of control
